TESTED ON: human muscarinic M1 receptor (Homo sapiens)
PROTOCOL TEXT: Alphascreen Surefire phospho-ERK1/2 functional assay, M1
Assay type: cell-based
CONDITION PARAMETERS: CHO cells stably expressing human M1; phospho-ERK1/2; * = variable results; read-out: pEC50 M1 (converted)
ATTRIBUTE MEASURED: EC50 (µM)

| MOLECULE | ENDPOINT VALUE |
| --- | --- |
| CCOC(=O)N1CCC2(CC(N3CCC(N4CCC[C@@H]4C(=O)OC)CC3)C2)C1 (single isomer, unassigned) [2-84 Isomer 2] | 0.251 |

a = CCOC(=O)N1CCC2(CC(N3CCC([C@@H]4CCCN4C(=O)NC4(C)COC4)CC3)C2)C1 (single isomer, unassigned) [2-36 Isomer 2]
b = CCOC(=O)N1CCC2(CC(N3CCC(c4ncc(C)n4C)CC3)C2)C1 (single isomer, unassigned) [1-10 Isomer 2]
Parameter metric = EC50. Return the lower-valued option from a and b . Field: selected label. Fill in the label of the entry you choose.
a

---

TESTED ON: human muscarinic M1 receptor (Homo sapiens, UniProt P11229)
Sequence (P11229 whole entry): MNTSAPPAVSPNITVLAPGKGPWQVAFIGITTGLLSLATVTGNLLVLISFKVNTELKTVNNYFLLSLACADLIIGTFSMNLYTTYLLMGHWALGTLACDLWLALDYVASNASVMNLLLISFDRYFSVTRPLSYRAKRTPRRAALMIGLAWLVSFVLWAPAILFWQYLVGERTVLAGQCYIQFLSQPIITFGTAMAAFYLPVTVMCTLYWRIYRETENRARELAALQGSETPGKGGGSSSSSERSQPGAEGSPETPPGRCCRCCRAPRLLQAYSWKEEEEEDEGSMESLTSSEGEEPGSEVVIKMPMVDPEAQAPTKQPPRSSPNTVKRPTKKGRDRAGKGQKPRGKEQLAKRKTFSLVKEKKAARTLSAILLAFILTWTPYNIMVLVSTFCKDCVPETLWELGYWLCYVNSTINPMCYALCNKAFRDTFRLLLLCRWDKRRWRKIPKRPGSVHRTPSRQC
PROTOCOL TEXT: Alphascreen Surefire phospho-ERK1/2 functional assay, M1
Type: cell-based
CONDITION PARAMETERS: CHO cells stably expressing human M1; phospho-ERK1/2; * = variable results; read-out: pEC50 M1 (converted)
ATTRIBUTE MEASURED: EC50 (nM)

Look over these answered cases.
| COMPOUND | UOM | EC50 |
| --- | --- | --- |
| CCOC(=O)N1CCC2(CC(N3CCC([C@@H]4CCCN4c4ccccn4)CC3)C2)C1 (single isomer, unassigned) [2-79 Isomer 2] | nM | 501 |
| CCOC(=O)N1CCC2(CC(N3CCC(N4CC(F)(F)C[C@@H]4C(=O)N(C)C)CC3)C2)C1 (single isomer, unassigned) [2-89 Isomer 2] | nM | 6310 |

a = CCOC(=O)N1CCC2(CC(N3CCC(N4CCC[C@@H]4CF)CC3)C2)C1 (single isomer, unassigned) [2-102 Isomer 2]
b = CCOC(=O)N1CCC2(CC(N3CCC(C4CCCN4C(=O)CNC)CC3)C2)C1 (single isomer, unassigned) [2-23 Isomer 2]
Parameter metric = EC50. Return the lower-valued option from a and b . Field: selected label. Fill in the label of the entry you choose.
b
(b: 1260 nM, a: 5010 nM)

---

TESTED ON: human muscarinic M1 receptor (Homo sapiens, UniProt P11229)
PROTOCOL TEXT: Alphascreen Surefire phospho-ERK1/2 functional assay, M1
Type: cell-based
CONDITION PARAMETERS: CHO cells stably expressing human M1; phospho-ERK1/2; * = variable results; read-out: pEC50 M1 (converted)
ATTRIBUTE MEASURED: EC50 (nM)

Look over these answered cases.
| COMPOUND | TESTED ON | ENDPOINT VALUE |
| --- | --- | --- |
| CCOC(=O)N1CCC2(CC(N3CCC(N4C(=O)CC[C@H]4C)CC3)C2)C1 (single isomer, unassigned) [2-113 Isomer 2] | human muscarinic M1 receptor (Homo sapiens, UniProt P11229) | 126 |
| CCOC(=O)N1CCC2(CC(N3CCC(N4CC(F)(F)C[C@@H]4C(=O)NC)CC3)C2)C1 (single isomer, unassigned) [2-88 Isomer 2] | human muscarinic M1 receptor (Homo sapiens, UniProt P11229) | 316 |
| CCOC(=O)N1CCC2(CC(N3CCC(c4ncns4)CC3)C2)C1 (single isomer, unassigned) [1-30 Isomer 2] | human muscarinic M1 receptor (Homo sapiens, UniProt P11229) | 316 |

1 = CCOC(=O)N1CCC2(CC(N3CCC([C@@H]4CCCN4C(=O)COC)CC3)C2)C1 (single isomer, unassigned) [2-46 Isomer 2]
2 = CCOC(=O)N1CCC2(CC(N3CCC(N4CCCC(F)(F)C4)CC3)C2)C1 (single isomer, unassigned) [4-13 Isomer 2]
3 = CCOC(=O)N1CCC2(CC(N3CCC(c4c(C)cnn4CC)CC3)C2)C1 (single isomer, unassigned) [1-59 Isomer 2]
Returns the items ordered by EC50, from maximum to minimum. Enter labels, ranked according to the request.
1, 2, 3
(1: 1580 nM, 2: 631 nM, 3: 398 nM)
